Data origin, for the record: patent US10767179B2

System: BE(2)-C cells
Assay: High-content screen: detection and quantification of neurite outgrowth
Type: cell-based
Set-up: key: neurite length normalized to the mean of its plate
Conditions: 25 nM miRNA mimic, 4 days transfection, normalized to plate mean
Param threshold (9) applies to Neurite length (mean ± SD); output class 1 when value >= threshold, class 0 when value < threshold.

hsa-miR-135b-5p: miRNA mimic, mature sequence UAUGGCUUUUCAUUCCUAUGUGA (SEQ ID NO: 6) (listed as RNA, chemistry not given here)	class 1
hsa-miR-107: miRNA mimic, mature sequence AGCAGCAUUGUACAGGGCUAUCA (SEQ ID NO: 13) (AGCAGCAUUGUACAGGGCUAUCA(3); as printed in the source, key not given here)	class 0
hsa-miR-506-3p: miRNA mimic (Dharmacon), mature sequence UAAGGCACCCUUCUGAGUAGA (SEQ ID NO: 1) (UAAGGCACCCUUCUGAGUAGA(1); as printed in the source, key not given here)	class 1
hsa-miR-449b-5p: miRNA mimic, mature sequence AGGCAGUGUAUUGUUAGCUGGC (SEQ ID NO: 15) (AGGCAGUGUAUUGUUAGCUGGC(2); as printed in the source, key not given here)	class 0
hsa-miR-103a-3p: miRNA mimic, mature sequence AGCAGCAUUGUACAGGGCUAUGA (SEQ ID NO: 8) (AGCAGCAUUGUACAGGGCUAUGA(3); as printed in the source, key not given here)	class 1
hsa-miR-34b-Sp: miRNA mimic, mature sequence UAGGCAGUGUCAUUAGCUGAUUG (SEQ ID NO: 12) (listed as RNA, chemistry not given here)	class 0
hsa-miR-137: miRNA mimic, mature sequence UUAUUGCUUAAGAAUACGCGUAG (SEQ ID NO: 16) (listed as RNA, chemistry not given here)	class 0
hsa-miR-34a-5p: miRNA mimic, mature sequence UGGCAGUGUCUUAGCUGGUUGU (SEQ ID NO: 7) (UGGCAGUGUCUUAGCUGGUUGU(2); as printed in the source, key not given here)	class 1
hsa-miR-3714: miRNA mimic, mature sequence GAAGGCAGCAGUGCUCCCCUGU (SEQ ID NO: 14) (listed as RNA, chemistry not given here)	class 0
hsa-miR-3937: miRNA mimic, mature sequence ACAGGCGGCUGUAGCAAUGGGGG (SEQ ID NO: 17) (listed as RNA, chemistry not given here)	class 0
